- study system: PEG-3 (UniProt Q6IN02)
- Sequence (Q6IN02 whole entry, looked up): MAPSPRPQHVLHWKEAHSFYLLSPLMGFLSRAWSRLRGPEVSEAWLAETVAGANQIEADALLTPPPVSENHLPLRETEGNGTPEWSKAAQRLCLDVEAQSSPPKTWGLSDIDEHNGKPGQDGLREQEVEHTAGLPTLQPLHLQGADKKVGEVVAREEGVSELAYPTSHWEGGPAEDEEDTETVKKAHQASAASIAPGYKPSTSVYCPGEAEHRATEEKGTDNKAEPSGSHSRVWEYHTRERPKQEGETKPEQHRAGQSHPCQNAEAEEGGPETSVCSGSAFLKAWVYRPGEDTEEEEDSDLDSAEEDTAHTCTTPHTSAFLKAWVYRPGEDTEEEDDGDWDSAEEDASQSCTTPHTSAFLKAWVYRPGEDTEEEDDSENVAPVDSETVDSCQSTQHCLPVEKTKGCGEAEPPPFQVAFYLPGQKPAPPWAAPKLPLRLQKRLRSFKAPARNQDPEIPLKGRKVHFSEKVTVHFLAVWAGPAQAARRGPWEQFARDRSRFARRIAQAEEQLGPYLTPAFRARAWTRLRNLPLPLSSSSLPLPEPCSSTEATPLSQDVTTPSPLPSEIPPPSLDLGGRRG
- assay name: Peg3 promoter luciferase inhibitors, potency, dose response, cell-based, HeLa, CREF/GAPDH counter-screen panel (AID 624167)
- condition label: CREF/GAPDH counter-screens; HeLa PEG-Prom luciferase reporter, overnight, run 2, dose range 1, at 100 µM (top of the series) unless noted
// reported inhibition per item
Note: unit % is implicit; provide only the numeric part.

Observe how each entry below is paired with its result.
1) CC1=CC2C(C(O)CC3(C)C2CC(C)C32OCOC23COCO3)C2(C)C/C(=C\O)C(=O)C=C12 (centres undefined) ... 101
2) O=c1cnnc(N/N=C/c2ccccn2)[nH]1 ... 58.7
3) CCCS(=O)(=O)c1cnc(C2COc3ccccc3O2)nc1N (centres undefined) ... 94.6

I am curious: what inhibition value has been reported for `COc1ccc(/C=C/C(=O)c2ccc3c4c(cccc24)CC3)cc1OC` ?
102

Also, `CS(=O)(=O)c1ccc2nc(NC(=O)CCS(=O)(=O)c3ccccc3)sc2c1` please.
92.7

Also, `COc1cc(C(=O)N/N=C(\c2ccccc2)c2ccccn2)cc(OC)c1OC` please.
74.9
